target_or_system: SIRT3 (Homo sapiens)
Sequence (Q9NTG7 102-399): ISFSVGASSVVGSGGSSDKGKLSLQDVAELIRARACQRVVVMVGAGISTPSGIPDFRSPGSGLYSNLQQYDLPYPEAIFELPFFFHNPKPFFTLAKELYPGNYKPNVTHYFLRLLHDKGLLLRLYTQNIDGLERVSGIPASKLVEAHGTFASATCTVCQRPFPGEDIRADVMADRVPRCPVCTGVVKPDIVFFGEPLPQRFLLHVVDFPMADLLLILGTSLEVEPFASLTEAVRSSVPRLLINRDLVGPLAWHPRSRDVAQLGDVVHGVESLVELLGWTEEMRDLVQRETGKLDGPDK
readout_label: IC50

C#CCOc1ccc(C(=O)c2ccc(C(=O)N[C@@H](CCCCNC(=S)CCCCCCCCCCCCC)C(=O)N[C@@H](C)C(=O)N[C@@H](C)C(=O)OC)cc2)cc1 [Probe 1C, reference compound]; > 5 mM

Then this compound:
Ask | Please give the documented IC50 of C#CCOc1ccc(C(=O)c2ccc(C(=O)N[C@@H](CCCCNC(=S)CCC(=O)O)C(=O)N[C@@H](C)C(=O)N[C@@H](C)C(=O)OC)cc2)cc1 [Probe 1B, reference compound]
Reply | > 5 mM
